Molecular target: Adenosine receptor A3 (Homo sapiens, UniProt P0DMS8)
Sequence (P0DMS8 whole entry): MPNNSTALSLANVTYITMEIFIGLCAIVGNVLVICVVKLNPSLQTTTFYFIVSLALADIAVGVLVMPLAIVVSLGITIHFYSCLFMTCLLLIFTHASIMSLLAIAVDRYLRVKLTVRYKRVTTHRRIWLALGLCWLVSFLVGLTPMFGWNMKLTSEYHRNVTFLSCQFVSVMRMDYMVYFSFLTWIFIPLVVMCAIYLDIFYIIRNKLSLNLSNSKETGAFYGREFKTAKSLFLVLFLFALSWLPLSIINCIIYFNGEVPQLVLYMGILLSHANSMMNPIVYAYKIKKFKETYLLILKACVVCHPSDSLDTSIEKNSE
Assay: Antagonist activity at adenosine A3 receptor (unknown origin) assessed as inhibition of NECA-induced cAMP accumulation pretreated for 30 mins followed by NECA induction by GloSensor assay
Catalogue of IC50 readings, one per entry.

Cc1c(C#N)cccc1-c1cc(-c2ccn(Cc3cccc(C(C)(C)O)c3)c(=O)c2)nc(N)n1    > 3 µM

Then this compound:
Data request: Please state recorded IC50 (tested on Adenosine receptor A3 (Homo sapiens, UniProt P0DMS8)) of Nc1nc(-c2ccccc2)cc(-c2ccn(Cc3ccccc3)c(=O)c2)n1
Data returned: > 10 µM
